meta.source: PubChem BioAssay (NCI)

- Test system: MOLT-4 leukemia
- procedure summary: NCI-60 one-dose screen, 48 h (100 = growth as untreated, 0 = no growth, -100 = all killed)
- condition description: 10 µM unless noted
- Experimental: Growth inhibition of the MOLT-4 human tumor cell line is measured as a screen for anti-cancer activity. Cells are grown in 96 well plates and exposed to the test compound for 48 hours. Compounds are tested at a single concentration, which is 10^-5 M for most compounds. The reported endpoint is percent growth (GI% or GIPRCNT), where numbers from 0 - 100% represent growth inhibition, and numbers from -100% - 0 represent cell death. For example, a value of 40 represents 60% growth inhibition. […]
About 83,000 compounds went through this panel and 20% of them were active in at least one assay; those are over-represented in the sample as a whole.
readout type: growth (%)
Report the value in % with no unit label.

compound | units of measure | growth
Cc1ccc(C2=NN(c3nc(-c4cc5ccccc5oc4=O)cs3)C(c3ccc(C)cc3)C2)cc1 (centres undefined) | % | 98.5
CC(C)CCNC(=O)N/C(N)=N/c1nc2ccccc2s1 | % | 29.6
CC(C)(C)OC(=O)/C=C/c1cccc2c1C(=O)NC(C)(c1cc3cc(Cl)ccc3oc1=O)N2 (centres undefined) | % | -14.6

Turning now to a further compound:
Q: Please report the recorded growth for Cc1cccc(NC(=O)[C@]23CCC(C)(C)CC2C2=CCC4[C@@]5(C)C[C@@H](O)[C@H](O)[C@@](C)(CO)C5CC[C@@]4(C)[C@]2(C)CC3)c1 (some centres undefined) .
Result: 5.2

* * *

- Tested on: 786-0 renal
- procedure summary: NCI-60 one-dose screen, 48 h (100 = growth as untreated, 0 = no growth, -100 = all killed)
- condition description: 10 µM unless noted
Compounds without any hit were thinned out: in the full panel of roughly 83,000, 20% have a hit.
Flag rule - growth less than 20% flags MET; the remaining entries get NOT MET.

Worked set:
compound | target | assigned class
O=C(NNc1nc2cc(F)ccc2n2c(CN3CC4CNCC4C3)ccc12)c1ccncn1 (centres undefined) | 786-0 renal | MET
CCCSc1nc(NCCc2c[nH]c3ccccc23)c(C#N)c(-c2ccccc2)n1 | 786-0 renal | NOT MET
CCN(CC)CCOc1ccc(Nc2ncc3cc(-c4ccc(O)c(C#N)c4)c(=O)n(C)c3n2)cc1 | 786-0 renal | MET
COc1ccc(NC(=O)c2sc3nc(C(C)C)ccc3c2N)cc1 | 786-0 renal | NOT MET
CC12CC[C@@H]3[C@]4(C)COC(c5cn[nH]c5-c5cccc(Cl)c5)O[C@@H]4CC[C@@]3(C)[C@@H]1CC(C1=CCOC1=O)O2 (some centres undefined) | 786-0 renal | NOT MET

Q: Please determine if Clc1ccc(-c2ccc(OCCCN3CCN(c4ccncc4)CC3)cc2)cc1 is below 20% in terms of growth.
Result: NOT MET

* * *

- System: OVCAR-5 ovarian
- procedure summary: NCI-60 one-dose screen, 48 h
- condition description: 10 µM unless noted
The panel holds about 83,000 compounds, 20% with a hit somewhere; the sample as a whole holds those more often. Calls of active or inactive are those of the source. Rule for the calls: active = growth percent below 10; inactive = the rest.
Thanks in advance; please answer with one of these: true (1) = active, false (0) = inactive

compound | assigned class
O=C(CN1C(=O)/C(=C/c2ccccc2Cl)SC1=S)N1CCOCC1 | false (0)
CCCCc1c(Nn2cnnn2)no[n+]1[O-] | false (0)
COc1cc2oc(-c3cccc(C(=O)Nc4ccc(Cl)cc4)c3)cc(=O)c2c(OCCNC(=O)[C@H](CCC(=O)OC(C)(C)C)NC(=O)OC(C)(C)C)c1OC | false (0)
Cc1ccc2c(N)c(C(=O)Nc3ccc(-c4ccccc4)cc3)sc2n1 | false (0)
COc1ccc2[nH]cc(-c3cc(N)n4nc(-c5cn(C)c6ccccc56)cc4n3)c2c1 | true (1)

Q: Per the records of this test, what outcome belongs to COc1cc(CNC(=O)/C=C/c2ccc3c(c2)OCO3)ccc1OCc1cn(-c2ccc([N+](=O)[O-])cc2)nn1 ?
Result: false (0)

Q: Can you look up the reported call for O=C1C(=Nc2ccc(F)c(Cl)c2)c2cccc3cccc1c23 for me?
Result: false (0)

Q: Tell me the assay call for COc1ccc(C(=O)/C=C/c2cccc(Br)c2)cc1S(N)(=O)=O please.
Result: true (1)
